Hi, quick share: literature IC50 data for Aurora kinase B (Homo sapiens, UniProt Q96GD4), several sources combined.

Ask: Give measured IC50 for COc1cc(-c2n[nH]c3ccc(C(=O)NC(c4ccccc4)C4CC4)cc23)ccc1OC1CCN(C=O)CC1 (stereo not drawn) (Aurora kinase B (Homo sapiens, UniProt Q96GD4)).
Reply: ≤ 5000 nM

Ask: State IC50 on Aurora kinase B (Homo sapiens, UniProt Q96GD4). Entry: CC(C)(O)C1CCN(c2ccc(-c3n[nH]c4ccc(NC(=O)C(c5ccsc5)N5CCC5)cc34)cc2)CC1 (stereo not drawn)
Reply: ≤ 5000 nM

Ask: Answer with IC50 of O=CN1CCC(Oc2ccc(-c3n[nH]c4ccc(NC(=O)C(c5ccsc5)N5CCCC5)cc34)cc2)CC1 (stereo not drawn) measured for Aurora kinase B (Homo sapiens, UniProt Q96GD4).
Reply: ≤ 5000 nM

Ask: Lab note: record IC50 of C[C@@H]1CN(c2ccc(-c3n[nH]c4ccc(NC(=O)C(c5ccsc5)N5CCCC5)cc34)cc2)C[C@H](C)O1 (stereo partly drawn) tested on Aurora kinase B (Homo sapiens, UniProt Q96GD4).
Reply: ≤ 5000 nM

Ask: Fill in: IC50 on Aurora kinase B (Homo sapiens, UniProt Q96GD4), entry O=C(Nc1ccc2[nH]nc(-c3ccc(OC4CN(C5COC5)C4)cc3)c2c1)C(c1ccsc1)N1CCCC1 (stereo not drawn)
Reply: ≤ 5000 nM

Ask: Specify the recorded IC50 for "CO[C@@H]1CN(c2nc(C)cc(Nc3cc[nH]n3)n2)C[C@H]1NC(=O)O[C@@H](C)C(F)(F)F" , system: Aurora kinase B (Homo sapiens, UniProt Q96GD4).
Reply: > 10000 nM

Ask: Report the value of IC50 obtained on Aurora kinase B (Homo sapiens, UniProt Q96GD4) for "CC[C@@H](NC(=O)c1ccc2[nH]nc(-c3ccc(OC4CCN(C)CC4)cc3)c2c1)c1cccc(OC)c1" .
Reply: ≤ 5000 nM

Ask: Retrieve IC50 on Aurora kinase B (Homo sapiens, UniProt Q96GD4); query NC(=O)[C@H]1[C@H]2C[C@H]3[C@H]1Nc1nc(ncc1F)Nc1cccc(c1)C(O)CN[C@@H]3C2 (stereo partly drawn)
Reply: 1 to 100 nM

Ask: Please indicate recorded IC50 of "CC1(C)CN(c2ccc(-c3oc(-c4ccc(Cl)c5[nH]ccc45)nc3C(N)=O)cc2)CCN1" measured with Aurora kinase B (Homo sapiens, UniProt Q96GD4).
Reply: 13.9 nM

Ask: Given "NC(=O)c1cccc2c(N[C@H](CN3CCC3)c3cc(F)cc(C(F)(F)F)c3)ncnc12" , report its IC50 on Aurora kinase B (Homo sapiens, UniProt Q96GD4).
Reply: 270 nM

Ask: Return reported IC50 for target or system Aurora kinase B (Homo sapiens, UniProt Q96GD4), item "CN1CCC(Oc2ccc(-c3n[nH]c4ccc(C(=O)NCc5ccccc5CN5CCOCC5)cc34)cc2)CC1" .
Reply: ≤ 5000 nM

Ask: State measured IC50 of the molecule "COc1cc2c(Oc3ccc(NC(=O)c4ccc(OC(F)(F)F)cc4)cc3)ccnc2cc1OCC[C@H](N)C(=O)O" with Aurora kinase B (Homo sapiens, UniProt Q96GD4).
Reply: 2000 to 5000 nM

Ask: Specify IC50 for C=CC1CC2/C=C\COc3cccc(c3)Nc3ncc(F)c(n3)N[C@H]2[C@H]1C(N)=O (stereo partly drawn) , system Aurora kinase B (Homo sapiens, UniProt Q96GD4).
Reply: 1 to 100 nM

Ask: Fill in IC50 for CCC1CC2CCCOc3cccc(c3)Nc3ncc(F)c(n3)N[C@H]2[C@H]1C(N)=O (stereo partly drawn) tested with Aurora kinase B (Homo sapiens, UniProt Q96GD4).
Reply: 101 to 1000 nM

Ask: GET IC50 where system = Aurora kinase B (Homo sapiens, UniProt Q96GD4) and item = CC(O)Cn1cc(Nc2ncc(Cl)c(NC3CC4CN(S(C)(=O)=O)CC4C3)n2)cn1 (stereo not drawn)
Reply: 1 nM
